- Target Under Test: ENPP1 (Homo sapiens)
- Sequence (P22413 whole entry): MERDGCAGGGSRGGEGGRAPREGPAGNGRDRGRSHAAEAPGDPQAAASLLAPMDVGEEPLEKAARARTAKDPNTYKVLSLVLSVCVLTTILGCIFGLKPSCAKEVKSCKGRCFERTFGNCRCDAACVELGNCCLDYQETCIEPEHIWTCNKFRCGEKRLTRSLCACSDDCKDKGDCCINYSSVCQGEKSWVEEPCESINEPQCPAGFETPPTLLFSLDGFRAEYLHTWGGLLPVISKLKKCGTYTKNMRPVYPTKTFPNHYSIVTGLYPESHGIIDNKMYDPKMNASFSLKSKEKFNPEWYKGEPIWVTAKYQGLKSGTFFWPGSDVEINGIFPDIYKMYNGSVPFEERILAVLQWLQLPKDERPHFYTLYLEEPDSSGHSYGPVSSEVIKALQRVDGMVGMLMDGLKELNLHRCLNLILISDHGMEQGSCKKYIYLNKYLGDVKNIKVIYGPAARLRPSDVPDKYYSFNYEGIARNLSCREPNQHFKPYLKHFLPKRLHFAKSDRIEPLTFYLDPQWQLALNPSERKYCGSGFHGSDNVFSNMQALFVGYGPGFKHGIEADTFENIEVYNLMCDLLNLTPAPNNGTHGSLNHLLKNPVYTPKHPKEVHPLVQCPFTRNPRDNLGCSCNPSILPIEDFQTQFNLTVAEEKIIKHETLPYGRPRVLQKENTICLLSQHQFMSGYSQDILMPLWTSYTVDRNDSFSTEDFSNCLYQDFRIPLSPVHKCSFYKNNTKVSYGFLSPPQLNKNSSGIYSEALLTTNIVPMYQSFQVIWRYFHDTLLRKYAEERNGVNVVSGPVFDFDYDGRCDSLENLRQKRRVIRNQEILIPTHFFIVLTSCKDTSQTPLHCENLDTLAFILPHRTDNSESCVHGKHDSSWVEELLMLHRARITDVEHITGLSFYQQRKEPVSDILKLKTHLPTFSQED
- Test Protocol: Substrate selectivity ratio, inhibition of cGAMP hydrolysis versus ATP hydrolysis
- Assay type: biochemical
- Protocol Conditions: ratio Ki AMP-pNP / Ki cGAMP
Each entry gets criterion not met if its Substrate Selectivity: Ki_AMP-pNP/Ki_cGAMP stays under 30, and criterion met if its Substrate Selectivity: Ki_AMP-pNP/Ki_cGAMP is 30 or above.

Look over these answered cases.
COc1cc2nccc(Oc3ccc4c(c3)CNS(=O)(=O)N4)c2cc1OC | criterion met
COc1cc2ncc(C#N)c(N3CCC(CCNS(N)(=O)=O)CC3)c2cc1OC | criterion met
COc1cc2nccc(N3CCCc4cc(NS(N)(=O)=O)ccc43)c2cc1OC | criterion met
COc1ccc2c(-n3cnc(CNS(N)(=O)=O)c3)ccnc2c1 | criterion met

Quick check: does "Cn1cnc2nccc(-c3ccc4c(c3)CN(S(N)(=O)=O)CC4)c21" have Substrate Selectivity: Ki_AMP-pNP/Ki_cGAMP greater than or equal to 30?
criterion met

Quick check: does "COc1cc2ncc(C#N)c(N3CCC4(CC3)CCN(S(N)(=O)=O)C4)c2cc1OC" have Substrate Selectivity: Ki_AMP-pNP/Ki_cGAMP greater than or equal to 30?
criterion not met

Quick check: does "COc1ccc2c(Oc3ccc(S(N)(=O)=O)cc3)c(C(F)(F)F)cnc2c1" have Substrate Selectivity: Ki_AMP-pNP/Ki_cGAMP greater than or equal to 30?
criterion met

Quick check: does "COc1ccc2c(Oc3ccc(NS(N)(=O)=O)c(C#N)c3)ccnc2c1" have Substrate Selectivity: Ki_AMP-pNP/Ki_cGAMP greater than or equal to 30?
criterion met

Quick check: does "COc1cc2nccc(-c3ccc4c(c3)CCN(S(N)(=O)=O)C4)c2cc1OC" have Substrate Selectivity: Ki_AMP-pNP/Ki_cGAMP greater than or equal to 30?
criterion met

Quick check: does "COc1ccc2c(N3CCC(CCNS(N)(=O)=O)CC3)ncnc2c1" have Substrate Selectivity: Ki_AMP-pNP/Ki_cGAMP greater than or equal to 30?
criterion met

Quick check: does "COc1ccc2c(NCc3ccc(S(N)(=O)=O)cc3)ccnc2c1" have Substrate Selectivity: Ki_AMP-pNP/Ki_cGAMP greater than or equal to 30?
criterion not met

Quick check: does "COc1cc2ncnc(N3CCC(CCN)CC3)c2cc1OC" have Substrate Selectivity: Ki_AMP-pNP/Ki_cGAMP greater than or equal to 30?
criterion met

Quick check: does "COc1ccc2c(Oc3ccc(S(N)(=O)=O)cc3)ccnc2n1" have Substrate Selectivity: Ki_AMP-pNP/Ki_cGAMP greater than or equal to 30?
criterion met

Quick check: does "COc1cc2ncc(F)c(-c3ccc4c(c3)CN(S(N)(=O)=O)CC4)c2cc1OC" have Substrate Selectivity: Ki_AMP-pNP/Ki_cGAMP greater than or equal to 30?
criterion not met

Quick check: does "COc1ccc2c(-c3ccc4c(c3F)CN(S(N)(=O)=O)CC4)ccnc2c1" have Substrate Selectivity: Ki_AMP-pNP/Ki_cGAMP greater than or equal to 30?
criterion met

Quick check: does "COc1ccc2ncc(C#N)c(-c3ccc4c(c3)CN(S(N)(=O)=O)CC4)c2c1" have Substrate Selectivity: Ki_AMP-pNP/Ki_cGAMP greater than or equal to 30?
criterion met

Quick check: does "COc1cc2ncnc(N3CCC(CCNS(N)(=O)=O)CC3)c2cc1F" have Substrate Selectivity: Ki_AMP-pNP/Ki_cGAMP greater than or equal to 30?
criterion met
